System: RET
conditionDescription: concentration: 1 μM, replicates: in singlicate; n = 1;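 further: KINOMEscan kinase panel screen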
Collected %Inh values appear next to each entry.
readoutType: %Inh (%)

[
  {
    "compound": "O=C(Nc1n[nH]c2cc(-c3ccsc3)ccc12)C1CC1",
    "measuredResult": 0
  },
  {
    "compound": "COc1ccc(Nc2nccc(N3CCC(NC(=O)c4cc5ccccc5s4)C3)n2)cc1 (stereo not drawn)",
    "measuredResult": 14
  },
  {
    "compound": "CCn1c(-c2ccccc2)nc2cnccc21",
    "measuredResult": 23
  },
  {
    "compound": "CCCCc1nn2ncccc2c1-c1ccnc(NC2CC2)n1",
    "measuredResult": 0
  },
  {
    "compound": "COc1ccc(-c2coc3ccc(-c4nnc(C)o4)cc23)cc1",
    "measuredResult": 0
  },
  {
    "compound": "COc1ccc(Nc2nccc(-c3ccc(NC(=O)c4cc5cc(F)ccc5[nH]4)cc3)n2)cc1",
    "measuredResult": 0
  },
  {
    "compound": "COC(=O)c1cccc(NC(=O)NC2CCN(c3ccnc(Nc4ccc(F)cc4)n3)C2)c1 (stereo not drawn)",
    "measuredResult": 5
  },
  {
    "compound": "COc1ccc(CSc2nnc(-c3ccc4c(c3)CCO4)o2)cc1",
    "measuredResult": 0
  },
  {
    "compound": "Cc1ccc(-c2nc(Nc3ccncc3)c3ccccc3n2)s1",
    "measuredResult": 13
  }
]

====

Tested on: EPHA6
conditionDescription: concentration: 1 μM, replicates: in singlicate; n = 1
readoutType: %Inh (%)

[
  {
    "molecule": "CC[C@@H]1CO[C@H](C(=O)Nc2ccccc2)CN1c1cc(-c2ccc3c(N)n[nH]c3c2)nc(NC)n1 [GSK2376236]",
    "measurementUnit": "%",
    "measuredResult": 9
  },
  {
    "molecule": "Cc1cnc(N)c(/C=C/c2cncc(C(=O)NCCc3ccc(Cl)cc3Cl)c2)c1.Cl [GSK190937]",
    "measurementUnit": "%",
    "measuredResult": 0
  },
  {
    "molecule": "COc1ccc(Nc2nccc(N3CCC(NC(=O)c4cc5ccccc5s4)C3)n2)cc1 (centres unmarked) [GSK1379738]",
    "measurementUnit": "%",
    "measuredResult": 1
  },
  {
    "molecule": "CNc1nc(-c2ccc3c(N)n[nH]c3c2)cc(N2C[C@@H](C(=O)NC3CCCCC3)OC[C@H]2C)n1 [GSK2375584]",
    "measurementUnit": "%",
    "measuredResult": 1
  },
  {
    "molecule": "Fc1ccc(-c2nc[nH]c2-c2ccncc2)cc1 [SB-217360]",
    "measurementUnit": "%",
    "measuredResult": 1
  },
  {
    "molecule": "CNc1nc(-c2ccc3c(N)n[nH]c3c2)cc(N2C[C@@H](C(=O)Nc3ccccc3)CC[C@H]2C)n1 [GSK2298859]",
    "measurementUnit": "%",
    "measuredResult": 0
  },
  {
    "molecule": "COc1cc2ncnc(Nc3cccc(Br)c3)c2cc1OC.Cl [GI230329]",
    "measurementUnit": "%",
    "measuredResult": 41
  },
  {
    "molecule": "CC(=O)c1c(C)c2cnc(Nc3ccn(C)n3)nc2n(C2CCCC2)c1=O",
    "measurementUnit": "%",
    "measuredResult": 0
  }
]

====

Test system: MKNK2
conditionDescription: concentration: 1 μM, replicates: in singlicate; n = 1
Collected %Inh values appear next to each entry.

[
  {
    "compound": "COC(=O)c1cccc(NC(=O)NC2CCN(c3ccnc(Nc4ccc(OC)cc4)n3)C2)c1 (centres unmarked)",
    "%Inh, %": 2
  },
  {
    "compound": "COc1ccc(CSc2nnc(-c3ccc4nccn4c3)o2)cc1C(F)(F)F",
    "%Inh, %": 0
  },
  {
    "compound": "Cl.Cl.Cl.N#Cc1ccc(CCNc2nccc(-c3cccc(CN4CCNCC4)c3)n2)cc1",
    "%Inh, %": 2
  },
  {
    "compound": "Cc1ccc(-c2nc(Nc3ccncc3)c3ccccc3n2)s1",
    "%Inh, %": 17
  },
  {
    "compound": "COc1ccc(Nc2nccc(-c3ccc(NC(=O)c4cc5cc(F)ccc5[nH]4)cc3)n2)cc1",
    "%Inh, %": 0
  }
]

====

Tested on: CSF1R
conditionDescription: concentration: 1 μM, replicates: in singlicate; n = 1
Outcome label depends on %Inh relative to 30%: at/above gives MET, below gives NOT MET.

[
  {
    "compound": "CNc1nc(-c2ccc3c(N)n[nH]c3c2)cc(N2C[C@@H](C(=O)NC3CCCCC3)OC[C@H]2C)n1 [GSK2375584]",
    "assignedCategory": "NOT MET"
  },
  {
    "compound": "Cc1ccccc1Cn1ccn2c(=O)cc(N3CCOCC3)nc12 [GSK2269905]",
    "assignedCategory": "NOT MET"
  },
  {
    "compound": "CNCc1ccc2nc(NC(=O)c3ccc(C(C)(C)C)cc3)cn2c1",
    "assignedCategory": "MET"
  },
  {
    "compound": "c1ccc(-c2ccnc3[nH]ccc23)cc1 [SB-693578]",
    "assignedCategory": "NOT MET"
  },
  {
    "compound": "CCn1c(-c2ccccc2)nc2cnccc21 [SB-733416]",
    "assignedCategory": "NOT MET"
  },
  {
    "compound": "COc1cccc(NC(=O)Nc2ccc(C)c(-c3ccc(C(=O)Nc4ccncc4)cc3)c2)c1 [GSK1398474]",
    "assignedCategory": "MET"
  },
  {
    "compound": "Cc1ccccc1-c1cc(-c2c[nH]nc2-c2ccccn2)ccn1 [GW680061]",
    "assignedCategory": "NOT MET"
  }
]

====

Collected %Inh values appear next to each entry.
Tested on: MAP4K4
conditionDescription: concentration: 1 μM, replicates: in singlicate; n = 1
readoutType: %Inh (%)

[
  {
    "molecule": "CSc1ccc(-c2nc3n(c2-c2ccncc2)CCC3)cc1",
    "readoutType": "%Inh",
    "measuredResult": 1
  },
  {
    "molecule": "Cc1ccc(NC(=O)c2ccc(Cl)cc2)cc1-c1ccc(C(=O)Nc2ccncc2)cc1",
    "readoutType": "%Inh",
    "measuredResult": 13
  },
  {
    "molecule": "Cn1cncc1C(=O)NC1CCN(c2ccnc(Nc3ccc(F)cc3)n2)C1 (stereo not shown)",
    "readoutType": "%Inh",
    "measuredResult": 7
  },
  {
    "molecule": "Nc1cccc(-c2ccc3c(N)n[nH]c3c2)n1",
    "readoutType": "%Inh",
    "measuredResult": 0
  },
  {
    "molecule": "COC(=O)c1cccc(NC(=O)NC2CCN(c3ccnc(Nc4ccc(F)cc4)n3)C2)c1 (stereo not shown)",
    "readoutType": "%Inh",
    "measuredResult": 1
  },
  {
    "molecule": "COc1ccc(CSc2nnc(-c3ccc4nccn4c3)o2)cc1C(F)(F)F",
    "readoutType": "%Inh",
    "measuredResult": 7
  },
  {
    "molecule": "COc1ccc(Nc2nccc(N3CCC(NC(=O)c4cc5ccccc5s4)C3)n2)cc1 (stereo not shown)",
    "readoutType": "%Inh",
    "measuredResult": 0
  },
  {
    "molecule": "Cc1ccc(NC(=O)Nc2ccccc2)cc1-c1ccc(C(=O)Nc2ccncc2)cc1",
    "readoutType": "%Inh",
    "measuredResult": 1
  },
  {
    "molecule": "Cc1ccc(NC(=O)Nc2ccc(Cl)c(C(F)(F)F)c2)cc1-c1ccc(C(=O)Nc2ccncc2)cc1",
    "readoutType": "%Inh",
    "measuredResult": 29
  },
  {
    "molecule": "CNc1nc(-c2ccc3c(N)n[nH]c3c2)cc(N2C[C@@H](C(=O)NC3CCCCC3)OC[C@H]2C)n1",
    "readoutType": "%Inh",
    "measuredResult": 15
  },
  {
    "molecule": "COc1ccc(Nc2nccc(NCCNC(=O)Nc3cc(C)ccc3C)n2)cc1",
    "readoutType": "%Inh",
    "measuredResult": 16
  },
  {
    "molecule": "COc1ccc2cc(-c3nc(-c4ccccc4C(C)C)[nH]c3-c3ccncc3)ccc2c1",
    "readoutType": "%Inh",
    "measuredResult": 31
  },
  {
    "molecule": "CC(C)c1cc(-c2ccc3c(N)n[nH]c3c2)nc(N)n1",
    "readoutType": "%Inh",
    "measuredResult": 1
  },
  {
    "molecule": "CC[C@@H]1CO[C@H](C(=O)Nc2ccccc2)CN1c1cc(-c2ccc3c(N)n[nH]c3c2)nc(NC)n1",
    "readoutType": "%Inh",
    "measuredResult": 0
  },
  {
    "molecule": "COc1cccc(CNC(=O)NC2CCN(c3ccnc(Nc4ccc(F)cc4)n3)C2)c1 (stereo not shown)",
    "readoutType": "%Inh",
    "measuredResult": 2
  },
  {
    "molecule": "CCc1ccc(-c2ccc3c(c2)-c2n[nH]cc2S(=O)(=O)N3C)cc1",
    "readoutType": "%Inh",
    "measuredResult": 15
  },
  {
    "molecule": "COc1ccc(CSc2nnc(-c3ccc4c(c3)CCO4)o2)cc1",
    "readoutType": "%Inh",
    "measuredResult": 0
  },
  {
    "molecule": "O=C1NC(=O)C(c2ccc(Cl)cc2)=C1Nc1ccc(O)cc1",
    "readoutType": "%Inh",
    "measuredResult": 0
  },
  {
    "molecule": "Cc1cnc(N)c(/C=C/c2cncc(C(=O)NCCc3ccc(Cl)cc3Cl)c2)c1.Cl",
    "readoutType": "%Inh",
    "measuredResult": 17
  },
  {
    "molecule": "O=C(Nc1n[nH]c2nc(-c3cccs3)c(Br)cc12)C1CC1",
    "readoutType": "%Inh",
    "measuredResult": 0
  },
  {
    "molecule": "CNC(=O)c1ccc(C)c(-n2c(C)cc(OCc3ccc(F)cc3F)c(Br)c2=O)c1",
    "readoutType": "%Inh",
    "measuredResult": 0
  },
  {
    "molecule": "Fc1ccc(-c2nc[nH]c2-c2ccncc2)cc1",
    "readoutType": "%Inh",
    "measuredResult": 10
  },
  {
    "molecule": "Fc1ccc(-c2nc3n(c2-c2ccncc2)CCS3)cc1",
    "readoutType": "%Inh",
    "measuredResult": 26
  },
  {
    "molecule": "COC(=O)c1cccc(NC(=O)NC2CCN(c3ccnc(Nc4ccc(OC)cc4)n3)C2)c1 (stereo not shown)",
    "readoutType": "%Inh",
    "measuredResult": 0
  },
  {
    "molecule": "Cc1ccc(NC(=O)Nc2ccccc2F)cc1-c1ccc(C(=O)Nc2ccncc2)cc1",
    "readoutType": "%Inh",
    "measuredResult": 29
  },
  {
    "molecule": "O=c1cc(N2CCOCC2)nc2n(Cc3cccc(Cl)c3Cl)c3ccccc3n12",
    "readoutType": "%Inh",
    "measuredResult": 0
  },
  {
    "molecule": "Cn1cnc2c(N)ncnc21",
    "readoutType": "%Inh",
    "measuredResult": 0
  },
  {
    "molecule": "O=c1cc(N2CCOCC2)nc2n(Cc3ccccc3F)ccn12",
    "readoutType": "%Inh",
    "measuredResult": 0
  },
  {
    "molecule": "COc1ccc(Nc2nccc(-c3ccc(NC(=O)c4cc5cc(F)ccc5[nH]4)cc3)n2)cc1",
    "readoutType": "%Inh",
    "measuredResult": 0
  },
  {
    "molecule": "Cc1cccc2c(-c3ccncn3)c(-c3ccc(F)cc3)nn12",
    "readoutType": "%Inh",
    "measuredResult": 7
  },
  {
    "molecule": "c1ccc(-c2ccnc3[nH]ccc23)cc1",
    "readoutType": "%Inh",
    "measuredResult": 0
  },
  {
    "molecule": "CCn1c(-c2c(N)noc2C)nc2cnccc21",
    "readoutType": "%Inh",
    "measuredResult": 10
  },
  {
    "molecule": "O=C(Nc1n[nH]c2nc(-c3ccco3)c(Br)cc12)C1CCN(Cc2ccccc2)C1.O=C(O)[C@H](O)[C@@H](O)C(=O)O (stereo not shown)",
    "readoutType": "%Inh",
    "measuredResult": 0
  },
  {
    "molecule": "Cn1cncc1-c1cc2c(Nc3ccc(OCc4ccccc4)cc3)ncnc2cn1",
    "readoutType": "%Inh",
    "measuredResult": 1
  },
  {
    "molecule": "CCn1c(-c2ccccc2)nc2cnccc21",
    "readoutType": "%Inh",
    "measuredResult": 18
  },
  {
    "molecule": "CC(=O)c1c(C)c2cnc(Nc3ccn(C)n3)nc2n(C2CCCC2)c1=O",
    "readoutType": "%Inh",
    "measuredResult": 0
  },
  {
    "molecule": "CC(=O)c1c(C)c2cnc(Nc3ccc(N4CCNCC4)cn3)nc2n(C2CCCC2)c1=O",
    "readoutType": "%Inh",
    "measuredResult": 0
  }
]
